Multiple publications report pIC50 for Cytosolic phospholipase A2 (Homo sapiens, UniProt P47712); what follows is a combined list.
pIC50: −log10 of the molar value.
Just so you know, the groups by pIC50 go like this: low interval = under 6, middle interval = from 6 up to 7, high interval = 7 and over

{"columns": ["Mol", "Cat"],
 "data": [
  ["Cn1cnc(S(=O)(=O)NCCc2c(CCOc3ccc(C(=O)O)cc3)c3cc(Cl)ccc3n2C(c2ccccc2)c2ccccc2)c1", "low interval"],
  ["O=C1NC(=O)/C(=C/c2ccc(C(=O)NC[C@@H]3C[C@H](OCc4ccc(F)cc4F)CN3C(=O)CCCCCCC3=CC(=O)c4ccccc4C3=O)cc2)S1", "low interval"],
  ["O=C(O)c1ccc(OCCc2c(CCNS(=O)(=O)Cc3nc4ccccc4o3)n(C(c3ccccc3)c3ccccc3)c3ccc(Cl)cc23)cc1", "middle interval"],
  ["O=C1NC(=S)SC1=C[C@@H]1C[C@H](SCc2ccccc2)CN1S(=O)(=O)c1ccc(-c2ccccc2)cc1", "low interval"],
  ["O=C1NC(=O)/C(=C/c2ccc(NC(=O)[C@@H]3C[C@@H](OCc4ccccc4-c4ccccc4)CN3C(=O)c3ccccc3C(=O)c3ccc(F)cc3)cc2)S1", "middle interval"],
  ["Cc1c(C(c2ccccc2)c2ccccc2)c2cc(Cl)ccc2n1CCOc1ccc(C(=O)O)cc1", "low interval"],
  ["CC(C)CN(C(c1ccccc1)c1ccccc1)[C@@H]1C[C@@H](CNC(=O)c2ccc(/C=C3\\SC(=O)NC3=O)cc2)N(C(=O)c2ccccc2C(=O)c2ccc(F)cc2)C1", "high interval"],
  ["O=C1NC(=O)/C(=C/c2ccc(C(=O)NC[C@@H]3C[C@@H](SCc4ccccc4-c4ccccc4)CN3C(=O)c3ccccc3C(=O)c3ccc(F)cc3)s2)S1", "high interval"],
  ["CS(=O)(=O)c1ccccc1S(=O)(=O)NCCc1c(CCOc2ccc(C(=O)O)cc2)c2cc(Cl)ccc2n1C(c1ccccc1)c1ccccc1", "middle interval"],
  ["Cc1ccccc1S(=O)(=O)NCCc1c(CCOc2ccc(C(=O)O)cc2)c2cc(Cl)ccc2n1C(c1ccccc1)c1ccccc1", "middle interval"],
  ["Cc1c(Cl)cccc1S(=O)(=O)NCCc1c(CCOc2ccc(C(=O)O)cc2)c2cc(Cl)ccc2n1C(c1ccccc1)c1ccccc1", "middle interval"],
  ["CC(=O)Oc1ccc(OC(C)=O)c(CCCCCCC(=O)N2C[C@@H](OC(c3ccccc3)c3ccccc3)C[C@H]2CNC(=O)c2ccc(/C=C3\\SC(=O)NC3=O)cc2)c1", "low interval"],
  ["CS[C@H]1C[C@@H](C(=O)Nc2ccc(/C=C3\\SC(=O)NC3=O)cc2)N(S(=O)(=O)c2ccc3ccccc3c2)C1", "low interval"],
  ["O=C1NC(=S)S/C1=C\\c1ccc(C(=O)NC[C@@H]2C[C@@H](OCc3ccccc3-c3ccccc3)CN2C(=O)c2ccccc2C(=O)c2ccc(F)cc2)s1", "high interval"],
  ["O=C1NC(=O)/C(=C/c2ccc(C(=O)NC[C@@H]3C[C@@H](OCc4ccccc4-c4cccc5ccccc45)CN3C(=O)c3ccccc3C(=O)c3ccc(F)cc3)cc2)S1", "high interval"]
]}

---

Multiple publications report log10(IC50) for Cytosolic phospholipase A2 (Homo sapiens); what follows is a combined list.
Experimental endpoint: log10(IC50) (log10 of the value in nM)

{"columns": ["Mol", "Reported measurement"],
 "data": [
  ["O=C1NC(=O)/C(=C/c2ccc(C(=O)NC[C@@H]3C[C@H](OCc4ccc(-c5ccccc5)cc4)CN3C(=O)c3ccc(Cn4sccc4=O)cc3)cc2)S1", 3.30],
  ["CN(Cc1ccccc1)[C@@H]1C[C@@H](C(=O)Nc2ccc(/C=C3\\SC(=S)NC3=O)cc2)N(C(=O)c2ccccc2C(=O)c2ccc(F)cc2)C1", 2.15],
  ["COC(=O)c1ccc(CS[C@H]2C[C@@H](CNC(=O)c3ccc(/C=C4\\SC(=S)NC4=O)cc3)N(C(=O)c3ccccc3)C2)cc1", 3.34],
  ["O=C(O)c1ccc(OCCc2c(CCNS(=O)(=O)Cc3cccnc3)n(C(c3ccccc3)c3ccccc3)c3ccc(Cl)cc23)cc1", 3.04],
  ["O=C(O)c1ccc(OCCc2c(CCNS(=O)(=O)c3cc(F)c(Cl)cc3F)n(C(c3ccccc3)c3ccccc3)c3ccc(Cl)cc23)cc1", 2.98],
  ["O=C1NC(=O)/C(=C/c2ccc(C(=O)NC[C@@H]3C[C@@H](N(Cc4ccccc4)Cc4ccccc4)CN3C(=O)c3ccccc3C(=O)c3ccc(F)cc3)cc2)S1", 1.78],
  ["O=C1NC(=O)/C(=C/c2ccc(CCC[C@@H]3C[C@@H](OCc4ccccc4-c4ccccc4)CN3C(=O)c3ccccc3C(=O)c3ccc(F)cc3)cc2)S1", 3.00],
  ["O=C(O)c1ccc(S(=O)(=O)CCc2c(CCNS(=O)(=O)Cc3ccc(Cl)c(Cl)c3)n(C(c3ccccc3)c3ccccc3)c3ccc(Cl)cc23)cc1", 2.30],
  ["CSc1ccccc1S(=O)(=O)NCCc1c(CCOc2ccc(C(=O)O)cc2)c2cc(Cl)ccc2n1C(c1ccccc1)c1ccccc1", 2.68],
  ["O=C(O)c1ccc(S(=O)(=O)CCc2c(CCNS(=O)(=O)Cc3ccccc3Cl)n(C(c3ccccc3)c3ccccc3)c3ccc(Cl)cc23)cc1", 2.26],
  ["O=C1NC(=O)C(=Cc2ccc(S(=O)(=O)NC[C@@H]3C[C@H](SC(c4ccccc4)c4ccccc4)CN3C(=O)c3ccccc3)cc2)S1", 3.11],
  ["O=C1NC(=O)/C(=C/c2ccc(C(=O)NC[C@@H]3C[C@@H](Oc4ccccc4-c4ccc5ccccc5c4)CN3C(=O)c3ccccc3C(=O)c3ccc(F)cc3)cc2)S1", 1.88],
  ["O=C(O)c1ccc(CCCc2c(CCNS(=O)(=O)Cc3cc(Cl)cc(Cl)c3)n(C(c3ccccc3)c3ccccc3)c3ccc(Cl)cc23)cc1", 2.30]
]}

---

Multiple publications report IC50 for Cytosolic phospholipase A2 (Homo sapiens, UniProt P47712); what follows is a combined list.

{"columns": ["Compound", "Target entity", "IC50 [nM]"],
 "data": [
  ["O=C1NC(=S)S/C1=C\\c1ccc(C(=O)NC[C@@H]2C[C@@H](OCc3ccccc3-c3ccccc3)CN2C(=O)c2ccccc2C(=O)c2ccc(F)cc2)cc1", "Cytosolic phospholipase A2 (Homo sapiens, UniProt P47712)", 300],
  ["CC(Cc1ccc(C(=O)O)cc1)c1c(CCNS(=O)(=O)Cc2ccccc2[N+](=O)[O-])n(C(c2ccccc2)c2ccccc2)c2ccc(Cl)cc12 (stereo not drawn)", "Cytosolic phospholipase A2 (Homo sapiens, UniProt P47712)", 130],
  ["COc1ccc(COC(=O)N2C[C@@H](SCc3cc(C(C)(C)C)c(OC)c(C(C)(C)C)c3)C[C@H]2CNC(=O)c2ccc(/C=C3\\SC(=O)NC3=O)cc2)cc1", "Cytosolic phospholipase A2 (Homo sapiens, UniProt P47712)", 1200]
]}

---

Multiple publications report log10 IC50 for Cytosolic phospholipase A2 (Homo sapiens); what follows is a combined list.
Experimental endpoint: log10 IC50 (log10 of the value in µM)

{"columns": ["Mol", "log10 IC50"],
 "data": [
  ["O=C(O)c1ccc(OCCc2c(CCNS(=O)(=O)Cc3c(F)cccc3F)n(C(c3ccccc3)c3ccccc3)c3ccc(Cl)cc23)cc1", -0.55],
  ["Cc1ccccc1SCS(=O)(=O)NCCc1c(CCOc2ccc(C(=O)O)cc2)c2cc(Cl)ccc2n1C(c1ccccc1)c1ccccc1", -0.40],
  ["O=C1NC(=O)/C(=C/c2ccc(/C=C\\[C@@H]3C[C@@H](OCc4ccccc4-c4ccccc4)CN3C(=O)c3ccccc3C(=O)c3ccc(F)cc3)s2)S1", 0.18],
  ["CC(C)CN(Cc1ccccc1-c1ccccc1)[C@@H]1C[C@@H](CNC(=O)/C=C/c2ccc(/C=C3\\SC(=O)NC3=O)cc2)N(C(=O)c2ccccc2C(=O)c2ccc(F)cc2F)C1", -2.74],
  ["O=C1NC(=O)/C(=C/c2ccc(C(=O)NC[C@@H]3C[C@@H](Oc4ccccc4-c4ccccc4)CN3C(=O)c3ccccc3C(=O)c3ccc(F)cc3)cc2)S1", -1.16],
  ["CC(C)CCN(Cc1ccccc1-c1ccccc1)[C@@H]1C[C@@H](CNC(=O)c2ccc(/C=C3\\SC(=O)NC3=O)cc2)N(C(=O)c2ccccc2C(=O)c2ccc(F)cc2)C1", -1.44],
  ["O=C(O)c1ccc(OCCc2c(CCNS(=O)(=O)c3ccc4ccccc4c3)n(C(c3ccccc3)c3ccccc3)c3ccc(Cl)cc23)cc1", 0.04],
  ["O=C1NC(=S)S/C1=C\\c1ccc(CCC[C@@H]2C[C@@H](OCc3ccccc3-c3ccccc3)CN2C(=O)c2ccccc2C(=O)c2ccc(F)cc2)cc1", -0.10],
  ["O=C(O)c1ccc(OCCc2c(CCNS(=O)(=O)Cc3cc(C(F)(F)F)cc(C(F)(F)F)c3)n(C(c3ccccc3)c3ccccc3)c3ccc(Cl)cc23)cc1", -0.47]
]}
